systemTested: T1, human ferroportin (SLC40A1) fused in frame with GFP, stably expressed in HEK293 cells (human, UniProt Q9NP59 1-571)
T1 sequence (looked up): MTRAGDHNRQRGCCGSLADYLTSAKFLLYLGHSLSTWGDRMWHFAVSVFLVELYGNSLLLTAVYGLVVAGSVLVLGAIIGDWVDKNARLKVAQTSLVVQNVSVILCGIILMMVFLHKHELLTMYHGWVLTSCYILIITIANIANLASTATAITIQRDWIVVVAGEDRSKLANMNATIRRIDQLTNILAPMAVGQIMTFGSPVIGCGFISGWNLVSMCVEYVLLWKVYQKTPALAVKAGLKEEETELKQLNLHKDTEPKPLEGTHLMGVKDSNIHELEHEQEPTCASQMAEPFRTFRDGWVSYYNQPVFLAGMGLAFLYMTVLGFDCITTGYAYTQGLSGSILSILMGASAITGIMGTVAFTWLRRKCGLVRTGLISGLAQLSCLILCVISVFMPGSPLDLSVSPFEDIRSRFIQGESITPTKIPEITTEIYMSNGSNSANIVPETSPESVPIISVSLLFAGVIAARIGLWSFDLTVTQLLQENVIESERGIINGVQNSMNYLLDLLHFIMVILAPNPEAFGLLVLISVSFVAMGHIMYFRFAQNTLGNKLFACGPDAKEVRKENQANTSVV
measurementNotes: cell-based or functional assay
Numbered stars: 1 amine (or outer) side, 2 acyl side, 3 side chain; on linkers, the order of the positions; unused ones are H or OH. Bridge positions count the residues as written; N and C are the ends. Square brackets hold non-standard residues; d marks the D form. Side chains are listed from the residue outwards. Ends that are not written are not given here. * marks the point of attachment. Ida = iminodiacetic acid, O=C(CN(CC(=O)[*:3])[*:1])[*:2]; γGlu = O=C(O)[C@H](CCC(=O)[*:2])N[*:1]; Palmitoyl = CCCCCCCCCCCCCCCC(=O)*; Myristoyl = CCCCCCCCCCCCCC(=O)*; Isovaleryl = CC(C)CC(=O)*; Albu = not defined here
propertyMeasured: Potency EC50 (nM)

Sample records with Potency EC50:
[Ida]THFPCIKFEPRSKGWVCK(Myristoyl)-NH2 (disulfide 6-18 (inferred)) [Compound 254]: 20
Isovaleryl-DTHFPCIKF-NH2 (SMILES CC[C@H](C)[C@H](NC(=O)[C@H](CS)NC(=O)[C@@H]1CCCN1C(=O)[C@H](Cc1ccccc1)NC(=O)[C@H](Cc1c[nH]cn1)NC(=O)[C@@H](NC(=O)[C@H](CC(=O)O)NC(=O)CC(C)C)[C@@H](C)O)C(=O)N[C@@H](CCCCN)C(=O)N[C@@H](Cc1ccccc1)C(N)=O) [Compound 291]: 7

(1) Isovaleryl-DTHFPCIKFEPRSKK([γGlu-Palmitoyl])CK-NH2 (not fully specified (bridges); cysteine pairing not given here) [Compound 222]
(2) Isovaleryl-DTHFPCIKFEPHSK(Albu)GCK-NH2 (disulfide 6-16 (inferred); reading uncertain) [Compound 265]
Q) Which has the smaller recorded Potency EC50, 1 or 2 ? Write down the label of the entry you select.
A) 1
